measurement.target: 11β-HSD2 (Homo sapiens, UniProt P80365)
Construct: endogenous in cells
Sequence (P80365 whole entry): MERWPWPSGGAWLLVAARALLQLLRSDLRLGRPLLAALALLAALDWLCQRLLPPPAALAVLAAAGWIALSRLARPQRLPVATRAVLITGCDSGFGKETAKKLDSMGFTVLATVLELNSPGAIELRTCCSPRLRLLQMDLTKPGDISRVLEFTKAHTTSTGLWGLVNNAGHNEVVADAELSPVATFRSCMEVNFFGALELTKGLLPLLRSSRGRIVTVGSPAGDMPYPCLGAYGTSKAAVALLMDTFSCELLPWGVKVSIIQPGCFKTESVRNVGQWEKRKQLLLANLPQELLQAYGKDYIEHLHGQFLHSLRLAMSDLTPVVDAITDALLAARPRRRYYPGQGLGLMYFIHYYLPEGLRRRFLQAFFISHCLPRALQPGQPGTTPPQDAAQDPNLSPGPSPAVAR
run.description: Cellular assay of 11β-HSD2 activity in HepG2 cells
applied.conditions: 4 hour pre-incubation, 10^-5M to 10^-10M, read-out: HSD2 cellular HepG2 Score
Form field: IC50 (one value per entry).

Worked cases, answers included:
Cc1ccccc1NC(C)(C)C(=O)N[C@H]1[C@@H]2CC3C[C@H]1C[C@](F)(C3)C2
1 to 10 µM
Cc1cc(Cl)ccc1OC(C)(C)C(=O)N[C@H]1[C@@H]2CC3C[C@H]1C[C@](N)(C3)C2
> 10 µM

Return reported IC50; argument: COc1ccc(NC(C)(C)C(=O)N[C@H]2[C@@H]3CC4C[C@H]2C[C@](O)(C4)C3)cc1
> 10 µM

Follow-up item: CC(C)(Nc1cccc(C(F)(F)F)c1)C(=O)N[C@H]1[C@@H]2CC3C[C@H]1C[C@](F)(C3)C2
> 10 µM

Follow-up item: CN(C)CCCO[C@@]12CC3C[C@H](C1)[C@H](NC(=O)C(C)(C)Oc1cccc(Cl)c1)[C@@H](C3)C2
1 to 10 µM

###

measurement.target: 11β-HSD2 (Homo sapiens)
Construct: endogenous in cells
run.description: Cellular assay of 11β-HSD2 activity in HepG2 cells
applied.conditions: 4 hour pre-incubation, 10^-5M to 10^-10M, read-out: HSD2 cellular HepG2 Score
readout.label: IC50

Worked cases, answers included:
Cc1cc(Cl)ccc1OC(C)(C)C(=O)N[C@H]1[C@@H]2CC3C[C@H]1C[C@](NC(=O)CN(C)C)(C3)C2
1 to 10 µM
CC(C)(Nc1ccccc1)C(=O)N[C@H]1[C@@H]2CC3C[C@H]1C[C@](O)(C3)C2
> 10 µM
COc1cccc(NC(C)(C)C(=O)N[C@H]2[C@@H]3CC4C[C@H]2C[C@](O)(C4)C3)c1
> 10 µM

Next item in the queue.
Return reported IC50; argument: Cc1cc(Cl)ccc1OC(C)(C)C(=O)N[C@H]1[C@@H]2CC3C[C@H]1C[C@](O)(C3)C2
< 1 µM

###

Form field: IC50 (one value per entry).
measurement.target: 11β-HSD2 (Homo sapiens, UniProt P80365)
Construct: endogenous in cells
run.description: Cellular assay of 11β-HSD2 activity in HepG2 cells
applied.conditions: 4 hour pre-incubation, 10^-5M to 10^-10M, read-out: HSD2 cellular HepG2 Score

Worked cases, answers included:
Cc1ccc(S(=O)(=O)N[C@@]23CC4C[C@H](C2)[C@H](NC(=O)C(C)(C)Oc2ccc(Cl)cc2C)[C@@H](C4)C3)cc1
> 10 µM
CN(C)S(=O)(=O)N[C@@]12CC3C[C@H](C1)[C@H](NC(=O)C(C)(C)Oc1cccc(C(F)(F)F)c1)[C@@H](C3)C2
1 to 10 µM
Cc1ccc(OC(C)(C)C(=O)NC2C3CC4CC2CC(c2ccccc2)(C4)C3)cc1 (stereo not shown)
> 10 µM
Cc1cc(Cl)ccc1OC(C)(C)C(=O)N[C@H]1[C@@H]2CC3C[C@H]1C[C@](NC(=O)CCl)(C3)C2
1 to 10 µM

Return reported IC50; argument: Cc1cc(Cl)ccc1OC(C)(C)C(=O)N[C@H]1[C@@H]2CC3C[C@H]1C[C@](C(=O)O)(C3)C2
1 to 10 µM

Follow-up item: COc1ccc(NC(C)(C)C(=O)N[C@H]2[C@@H]3CC4C[C@H]2C[C@](F)(C4)C3)cc1
> 10 µM

Follow-up item: Cc1ccc(OC(C)(C)C(=O)N[C@@H]2[C@@H]3CC4C[C@H]2C[C@](OCc2ccccc2)(C4)C3)cc1
< 1 µM

Follow-up item: Cc1cc(Cl)ccc1OC(C)(C)C(=O)N[C@H]1[C@@H]2CC3C[C@H]1C[C@](NS(C)(=O)=O)(C3)C2
1 to 10 µM

Follow-up item: CC(C)(Sc1ccc(Cl)cc1)C(=O)N[C@H]1[C@@H]2CC3C[C@H]1C[C@](O)(C3)C2
1 to 10 µM

Follow-up item: CC(C)(Oc1cccc(C(F)(F)F)c1)C(=O)N[C@H]1[C@@H]2CC3C[C@H]1C[C@](NS(=O)(=O)CC(F)(F)F)(C3)C2
1 to 10 µM

Follow-up item: O=C(N[C@H]1[C@@H]2CC3C[C@H]1C[C@](O)(C3)C2)C1COc2ccccc2O1 (stereo partly shown)
1 to 10 µM

Follow-up item: Cc1cc(Cl)ccc1OC(C)(C)C(=O)N[C@H]1[C@@H]2CC3C[C@H]1C[C@](NC(=O)CC(C)C)(C3)C2
1 to 10 µM

Follow-up item: CC(C)(Oc1cccc(Cl)c1)C(=O)N[C@H]1[C@@H]2CC3C[C@H]1C[C@](N)(C3)C2
> 10 µM

Follow-up item: O=C(N[C@H]1[C@@H]2CC3C[C@H]1C[C@](O)(C3)C2)C1Cc2ccccc2O1 (stereo partly shown)
1 to 10 µM

FYI, the data here is from patent US8344181B2.
